So I've got a bunch of compounds here, and I need their inhibition at 1 µM values.
Target: hDGAT1 (Homo sapiens, UniProt O75907)
Construct: made in house; host or cells: Sf9 insect cells (baculovirus); microsomal fraction
Sequence (O75907 1-488): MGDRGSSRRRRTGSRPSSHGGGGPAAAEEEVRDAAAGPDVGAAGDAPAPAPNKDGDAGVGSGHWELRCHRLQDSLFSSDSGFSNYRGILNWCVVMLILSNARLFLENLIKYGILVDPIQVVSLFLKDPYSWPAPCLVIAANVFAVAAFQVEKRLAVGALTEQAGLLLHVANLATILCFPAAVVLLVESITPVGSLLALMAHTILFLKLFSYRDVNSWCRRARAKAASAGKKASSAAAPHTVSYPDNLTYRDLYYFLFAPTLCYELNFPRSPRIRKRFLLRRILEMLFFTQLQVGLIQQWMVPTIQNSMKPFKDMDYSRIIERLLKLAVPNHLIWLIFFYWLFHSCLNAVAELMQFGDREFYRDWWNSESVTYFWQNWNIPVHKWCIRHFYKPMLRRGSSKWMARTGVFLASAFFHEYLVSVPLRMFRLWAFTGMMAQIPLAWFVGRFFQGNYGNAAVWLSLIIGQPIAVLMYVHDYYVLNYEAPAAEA
Assay: In-vitro DGAT1 assay with hDGAT1 microsomes from Sf9 cells (14C oleoyl CoA, scintillation counting)
Format: biochemical
Details: read-out: Percentage inhibition of hDGAT1

Ask: Provide one value: measured inhibition at 1 µM of CC(C)(CCc1ncc(-c2ccc(NC(=O)N3CCOCC3)cc2)s1)C(=O)O
Reply: 20 to 50%

Ask: Provide one value: measured inhibition at 1 µM of CC(C)(NS(=O)(=O)C(F)(F)F)c1ncc(-c2ccc(NC(=O)Nc3ccccc3Cl)cc2)s1
Reply: > 50%

Ask: Provide one value: measured inhibition at 1 µM of CC(C)(CCc1ncc(-c2ccc(NC(=O)N3CCC(c4ccccc4)CC3)cc2)s1)C(=O)O
Reply: > 50%

Ask: Provide one value: measured inhibition at 1 µM of CC(C(=O)O)N1CCC(c2ncc(-c3ccc(NC(=O)Nc4cc(F)c(F)cc4F)cc3)s2)CC1 (stereo not shown)
Reply: > 50%

Ask: Provide one value: measured inhibition at 1 µM of O=C(Nc1ccc(-c2cnc(C34CC5CC(CC(C(=O)O)(C5)C3)C4)s2)cc1)Nc1ccc(F)c(F)c1F
Reply: > 50%

Ask: Provide one value: measured inhibition at 1 µM of Cc1ccc(Cl)c(NC(=O)Nc2ccc(-c3cnc(C4CCC(C(=O)O)CC4)s3)cc2)c1 (stereo not shown)
Reply: > 50%

Ask: Provide one value: measured inhibition at 1 µM of Cc1noc(CC2CCC(c3ncc(-c4ccc(NC(=O)Nc5ccccc5Cl)cc4)s3)CC2)n1 (stereo not shown)
Reply: > 50%

Ask: Provide one value: measured inhibition at 1 µM of CC(C)(CC(=O)O)Cc1ncc(-c2ccc(NC(=O)Nc3cccc(C(F)(F)F)c3)cc2)s1
Reply: > 50%

Ask: Provide one value: measured inhibition at 1 µM of CC(C)(O)C1CCC(c2ncc(-c3ccc(NC(=O)Nc4ccccc4Cl)cc3)s2)CC1 (stereo not shown)
Reply: > 50%

Ask: Provide one value: measured inhibition at 1 µM of O=C(Nc1ccc(-c2cnc(CNS(=O)(=O)C(F)(F)F)s2)cc1)Nc1cc(F)cc(F)c1
Reply: > 50%

Ask: Provide one value: measured inhibition at 1 µM of CC(C)(Cc1ncc(-c2ccc(NC(=O)c3ccc(C(C)(C)C)cc3)cc2)s1)C(=O)O
Reply: 20 to 50%

Ask: Provide one value: measured inhibition at 1 µM of COc1ccc(S(=O)(=O)Nc2ccc(-c3cnc(CC(C)(C)CC(=O)O)s3)cc2)c(OC)c1
Reply: 20 to 50%

Ask: Provide one value: measured inhibition at 1 µM of O=C(Nc1ccccc1)Nc1ccc(-c2cnc(CNS(=O)(=O)C(F)(F)F)s2)cc1
Reply: > 50%

Ask: Provide one value: measured inhibition at 1 µM of CC(C)(CCc1ncc(-c2ccc(NC(=O)Nc3ccccc3Cl)cc2)s1)C(=O)O
Reply: > 50%

Ask: Provide one value: measured inhibition at 1 µM of O=C(Nc1ccc(-c2cnc(C3CCC(C(=O)O)CC3)s2)cc1)Nc1cccc(Cl)c1F (stereo not shown)
Reply: > 50%

Ask: Provide one value: measured inhibition at 1 µM of CC(C)(NS(=O)(=O)C(F)(F)F)c1ncc(-c2ccc(NC(=O)Nc3c(F)cc(F)cc3F)cc2)s1
Reply: 20 to 50%

###

So I've got a bunch of compounds here, and I need their inhibition at 1 µM values.
Biological target: hDGAT1 (Homo sapiens, UniProt O75907)
Construct: made in house; host or cells: Sf9 insect cells (baculovirus); microsomal fraction
Experiment: In-vitro DGAT1 assay with hDGAT1 microsomes from Sf9 cells (14C oleoyl CoA, scintillation counting)
Assay type: biochemical
Details: read-out: Percentage inhibition of hDGAT1

Ask: Provide one value: measured inhibition at 1 µM of Cc1nnc(CC2CCC(c3ncc(-c4ccc(NC(=O)Nc5cc(F)c(F)cc5F)cc4)s3)CC2)s1 (stereo not shown)
Reply: > 50%

Ask: Provide one value: measured inhibition at 1 µM of CC(C)(NS(=O)(=O)C(F)(F)F)c1ncc(-c2ccc(NC(=O)NC3CCCCC3)cc2)s1
Reply: > 50%

Ask: Provide one value: measured inhibition at 1 µM of CC(C)(Cc1ncc(-c2ccc(NC(=O)Nc3ccc(Cl)cc3Oc3ccccc3)cc2)o1)C(=O)O
Reply: > 50%

Ask: Provide one value: measured inhibition at 1 µM of CC(C)(CCc1ncc(-c2ccc(NC(=O)NCCN3CCCCC3)cc2)s1)C(=O)O
Reply: 20 to 50%

###

Biological target: hDGAT1 (Homo sapiens)
Construct: made in house; host or cells: Sf9 insect cells (baculovirus); microsomal fraction
Assay: In-vitro DGAT1 assay with hDGAT1 microsomes from Sf9 cells (14C oleoyl CoA, scintillation counting)
Assay type: biochemical
Details: read-out: Percentage inhibition of hDGAT1
So I've got a bunch of compounds here, and I need their inhibition at 1 µM values.

Ask: Please tell me the measured inhibition at 1 µM for O=C(Nc1ccc(-c2cnc(C3CCC(C(=O)O)CC3)s2)cc1)Nc1ccc(Cl)cc1Oc1ccccc1 (stereo not shown) ; system: hDGAT1 (Homo sapiens).
Reply: > 50%

Ask: Please tell me the measured inhibition at 1 µM for CC(C)(CCc1ncc(-c2ccc(NC(=O)N3CCC(F)(F)CC3)cc2)s1)C(=O)O ; system: hDGAT1 (Homo sapiens).
Reply: 20 to 50%

Ask: Please tell me the measured inhibition at 1 µM for O=C(Nc1ccc(-c2cnc(C3CCC(C(=O)O)CC3)s2)cc1)Nc1ccccc1Cl (stereo not shown) ; system: hDGAT1 (Homo sapiens).
Reply: > 50%

Ask: Please tell me the measured inhibition at 1 µM for CC(C)(CCc1ncc(-c2ccc(NC(=O)Nc3cccc(C(F)(F)F)c3)cc2)s1)C(=O)O ; system: hDGAT1 (Homo sapiens).
Reply: > 50%

###

So I've got a bunch of compounds here, and I need their inhibition at 1 µM values.
Biological target: hDGAT1 (Homo sapiens)
Construct: made in house; host or cells: Sf9 insect cells (baculovirus); microsomal fraction
Sequence (O75907 1-488): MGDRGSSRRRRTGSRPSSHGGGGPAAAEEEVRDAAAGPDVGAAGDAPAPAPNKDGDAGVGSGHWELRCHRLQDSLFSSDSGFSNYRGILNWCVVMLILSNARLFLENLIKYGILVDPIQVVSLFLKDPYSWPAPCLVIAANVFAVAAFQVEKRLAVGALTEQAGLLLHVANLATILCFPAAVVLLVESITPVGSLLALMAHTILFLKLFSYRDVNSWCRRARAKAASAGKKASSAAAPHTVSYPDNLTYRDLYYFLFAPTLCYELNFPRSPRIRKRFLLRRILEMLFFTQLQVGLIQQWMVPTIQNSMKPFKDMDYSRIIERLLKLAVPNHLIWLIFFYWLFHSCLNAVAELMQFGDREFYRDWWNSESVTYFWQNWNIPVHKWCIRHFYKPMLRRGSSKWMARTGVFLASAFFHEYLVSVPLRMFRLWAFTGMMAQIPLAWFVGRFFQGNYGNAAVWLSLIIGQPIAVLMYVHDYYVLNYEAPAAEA
Assay: In-vitro DGAT1 assay with hDGAT1 microsomes from Sf9 cells (14C oleoyl CoA, scintillation counting)
Assay type: biochemical
Settings: read-out: Percentage inhibition of hDGAT1
Counter-ions that a name gives are not always drawn.

Ask: Provide one value: measured inhibition at 1 µM of O=C(Nc1ccc(-c2cnc(C3CCNCC3)s2)cc1)Nc1ccccc1Cl [Example 474, hydrochloride]
Reply: 20 to 50%

Ask: Provide one value: measured inhibition at 1 µM of CC(C)(O)C1CCC(c2ncc(-c3ccc(NC(=O)Nc4cc(F)cc(F)c4)cc3)s2)CC1 (centres unmarked)
Reply: > 50%

Ask: Provide one value: measured inhibition at 1 µM of O=C(Nc1ccc(-c2cnc(C3CCC(C(=O)O)CC3)s2)cc1)c1ncc(-c2ccccc2)o1 (centres unmarked)
Reply: > 50%

Ask: Provide one value: measured inhibition at 1 µM of NCCc1ncc(-c2ccc(NC(=O)Nc3cc(F)cc(F)c3)cc2)s1 [Example 574, hydrochloride]
Reply: 20 to 50%

Ask: Provide one value: measured inhibition at 1 µM of Cc1noc(CC2CCC(c3ncc(-c4ccc(NC(=O)Nc5ccc(F)cc5F)cc4)s3)CC2)n1 (centres unmarked)
Reply: > 50%

Ask: Provide one value: measured inhibition at 1 µM of O=C(O)CC1CCC(c2ncc(-c3ccc(NC(=O)Nc4ccc(F)cc4F)cc3)s2)CC1 (centres unmarked)
Reply: > 50%

Ask: Provide one value: measured inhibition at 1 µM of CCCCCc1ccc(C(=O)Nc2ccc(-c3cnc(CCC(=O)O)s3)cc2)cc1
Reply: > 50%

Ask: Provide one value: measured inhibition at 1 µM of O=C(O)CCCc1ncc(-c2ccc(NC(=O)Nc3ccc(Cl)cc3Oc3ccccc3)cc2)s1
Reply: > 50%

Every entry's value here was drawn from patent US20130158075A1.
